Task for the reader: assign each of the following compounds its reported activation.
target: Cellular tumor antigen p53 (Homo sapiens); assay: Primary qHTS for small molecule compounds that upregulate eGFP-tagged delta133p53alpha (in N-terminal) cells. (AID 2060322); details: NCI-H358 eGFP-delta133p53alpha fluorescence, 24 h; stronger effect = higher value;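 note: cells pre-induced with doxycycline then dosed without doxycycline; 0% = DMSO vehicle and 100% = reference activator; nearly all actives have a fitted effect of over 75% in size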
Results filed as inconclusive are left out.
Numbers only, in %.

Take a look at these entries with their results.
{"compound": "CC1CCC2C(C(=O)O)=COC(O[C@@H]3O[C@H](CO)[C@@H](O)[C@H](O)[C@H]3O)C12 (stereo partly specified)", "endpoint-value": -3.57}
{"compound": "CCCn1c(=O)c(C)cn2nc(N)nc12", "endpoint-value": -37.9}
{"compound": "CC[C@@H](C)[C@H](N)C(=O)N1Cc2ccccc2C1", "endpoint-value": 3.82}
{"compound": "O=C(NC1CCN(CC(F)(F)F)CC1)c1ccc(-c2cccc(F)c2)nc1", "endpoint-value": -16.7}

Could you tell me activation for each of these compounds? They are listed below.
1. O=C(/C=C/C#Cc1cccc(NS(=O)(=O)c2ccccc2)c1)NO
2. CC1(C)CCC2(C(=O)OC3OC(COC4OC(CO)C(O)C(O)C4O)C(O)C(O)C3O)CCC3(C)C(=CCC4C5(C)CCC(O)C(C)(C(=O)O)C5CCC43C)C2C1O (stereo unspecified)
3. CC(C)Cn1c(=O)n(C)c(=O)c2[nH]cnc21
4. O=c1cc(-c2ccccc2)oc2c(O)c(O)ccc12
5. Cc1cc(=O)[nH]c(=S)[nH]1
6. Nc1ncnc2c1ncn2C1CCCC1

Reply |
1. -10.1
2. 5.34
3. -30.3
4. -43.5
5. 19.2
6. -5.11

According to the records, this compound `CCn1c(C(=O)N(C2CC2)C2CC2)cc2c3c(ncn3C)c(Nc3cc(C)n(C)n3)nc21` displays activation of -29.5

====

biological target: Cellular tumor antigen p53 (Homo sapiens) (UniProt P04637); assay: Primary qHTS for small molecule compounds that upregulate eGFP-tagged delta133p53alpha (in N-terminal) cells. (AID 2060322); conditions: NCI-H358 eGFP-delta133p53alpha fluorescence, 24 h; stronger effect = higher value;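 note: cells pre-induced with doxycycline then dosed without doxycycline; 0% = DMSO vehicle and 100% = reference activator; nearly all actives have a fitted effect of over 75% in size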
Sequence (P04637 whole entry, looked up): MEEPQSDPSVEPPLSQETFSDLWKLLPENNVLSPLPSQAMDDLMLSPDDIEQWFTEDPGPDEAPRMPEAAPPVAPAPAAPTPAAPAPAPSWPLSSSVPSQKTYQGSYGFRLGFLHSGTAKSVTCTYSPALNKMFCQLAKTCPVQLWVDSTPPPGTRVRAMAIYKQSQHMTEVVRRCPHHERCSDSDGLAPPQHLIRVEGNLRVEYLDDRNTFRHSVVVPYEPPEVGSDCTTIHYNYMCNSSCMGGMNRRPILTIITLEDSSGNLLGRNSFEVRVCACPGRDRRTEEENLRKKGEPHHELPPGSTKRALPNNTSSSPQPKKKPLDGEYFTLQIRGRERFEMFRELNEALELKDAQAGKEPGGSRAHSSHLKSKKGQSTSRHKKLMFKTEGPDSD
Results filed as inconclusive are left out.
Exercise: for every item that follows, state its recorded activation.
Answers are plain numbers, in %.

{"molecule": "C[C@@H](c1ccc2nccn2c1)n1nnc2ncc(-c3cnn(C)c3)nc21", "system": "Cellular tumor antigen p53 (Homo sapiens) (UniProt P04637)", "activation [%]": 2.86}

Please give activation for each item listed below.
1. CC12CCC(OC3OC(CO)C(O)C(O)C3OC3OC(CO)C(O)C(O)C3O)CC1CCC1C2CCC2(C)/C(=C3/COC(=O)C3)CCC12O (stereo unspecified)
2. CC(C)=CCC/C(C)=C/CC/C(C)=C/CCC(=O)OC/C=C(\C)CCC=C(C)C
3. N#Cc1ccc(-c2cnc3[nH]cc(NC(=O)c4cccnc4)c3c2)cc1
4. CC(C)(CO)c1cc2cc(NC(=O)C3(c4ccc5c(c4)OC(F)(F)O5)CC3)c(F)cc2n1CC(O)CO (stereo unspecified)
5. O=C1CC2(CCCC2)CC(=O)N1CCNCC1COc2ccccc2O1 (stereo unspecified)

Reply |
1. -0.763
2. 0.565
3. -4.46
4. 17.7
5. -5.86

Provide the reported activation of each entry below, same order.
1. Cc1occc1C(=O)n1ccnc1
2. C=C1[C@H](OC(C)=O)[C@H]2[C@@H](OC(=O)c3ccccc3)[C@@H](C)C[C@]2(O)[C@@H](OC(C)=O)[C@H](C)/C=C/C(C)(C)C(=O)[C@H](OC(C)=O)[C@H]1OC(C)=O
3. Oc1cc(O)cc(/C=C/c2ccc(O)c(O)c2)c1
4. CSCC1OC(n2cnc3c(N)ncnc32)C(O)C1O (stereo unspecified)
5. C=C[C@@]1(C)CC(=O)C2[C@](C)(O1)[C@@H](OC(C)=O)[C@@H](O)[C@H]1C(C)(C)CCC[C@]21C (stereo partly specified)
6. OCCOCCN1CCN(C(c2ccccc2)c2ccc(Cl)cc2)CC1 (stereo unspecified)
7. CC[C@H]1OC(=O)[C@H](C)[C@@H](O[C@H]2C[C@@](C)(OC)[C@@H](O)[C@H](C)O2)[C@H](C)[C@@H](O[C@@H]2O[C@H](C)C[C@H](NC)[C@H]2O)[C@](C)(O)C[C@@H](C)CN(C)[C@H](C)[C@@H](O)[C@]1(C)O

Reply |
1: 1.43; 2: -3.57; 3: 11.9; 4: 6.11; 5: -4.33; 6: 8.47; 7: -4.2

====

I'd appreciate it if you could supply activation values for the items below.
target: Cellular tumor antigen p53 (Homo sapiens) (UniProt P04637); assay: Primary qHTS for small molecule compounds that upregulate eGFP-tagged delta133p53alpha (in N-terminal) cells. (AID 2060322); conditions: NCI-H358 eGFP-delta133p53alpha fluorescence, 24 h; stronger effect = higher value;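 note: cells pre-induced with doxycycline then dosed without doxycycline; 0% = DMSO vehicle and 100% = reference activator; nearly all actives have a fitted effect of over 75% in size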
Results filed as inconclusive are left out.
One number for each entry, in %.

{"compound": "Nc1ccc(S(=O)(=O)Nc2cnc3ccccc3n2)cc1", "units": "%", "activation": -24.3}

Below are some compounds; for each one, tell me its activation.
1. CN1CCc2cc3c(cc2C(=O)Cc2cc4c(cc2C1)OCO4)OCO3
2. CC(=O)O[C@]1(C(C)=O)CC[C@H]2[C@@H]3C[C@H](C)C4=CC(=O)C=C[C@]4(C)[C@@]3(F)[C@@H](O)C[C@@]21C
3. C=C[C@]1(C)C[C@H](O)[C@@H]2[C@H](OC(=O)[C@@H]2C)C1/C(C)=C/O[C@@H]1O[C@H](CO)[C@@H](O)[C@H](O)[C@H]1O (some centres undefined)

Reply |
1. -8.04
2. 1.91
3. -27.7

====

experiment: qHTS for Inhibitors of the Aldehyde Dehydrogenase Family (ALDH1A2, ALDH1A3, ALDH2, ALDH3A1) (AID 2061307); conditions: ALDH inhibition qHTS; series mostly up to 50.3 µM; note: nearly all actives have a fitted effect of over 50% in size; for Potency: test system not described further here; potency is the fitted concentration of half-maximal effect
Results filed as inconclusive are left out. The source made the active and inactive calls. The call rests on the fitted dose curve; in most records, active means well fitted inhibition curve with a large enough effect; inconclusive means small, poorly fitted or top-dose-only effect; inactive means no such curve, though single readings can be large or run the other way.
observed-property: Potency

Would you please look over these solved cases?
{"molecule": "O=C(O)c1ccc2c(c1)C(=O)N([C@H](Cc1ccc(F)cc1)C(=O)O)C2=O", "Potency": "inactive"}
{"molecule": "O=C(NC1CCCc2c1cnn2-c1ccc(F)cc1F)c1ccc(C(=O)c2ccccc2)cc1 (stereo not drawn)", "Potency": "inactive"}
{"molecule": "COc1ccc(C2Nc3ccccc3C(=O)N2Cc2ccccc2)cc1COc1cccc(Cl)c1 (stereo not drawn)", "Potency": "5.65 µM (active)"}
{"molecule": "CN(CCCOc1ccc(Cc2ccccc2)cc1)CCC(=O)O", "Potency": "inactive"}
{"molecule": "Cc1nc(N=Nc2cc(S(=O)(=O)O)c3cc([N+](=O)[O-])cc(S(=O)(=O)O)c3c2)c(COP(=O)(O)O)c(C=O)c1O", "Potency": "inactive"}

Provide Potency for all items below, preserving their order.
1. CN1Cc2sccc2C(c2ccc(O)c(O)c2)C1 (stereo not drawn)
2. COc1ccc(C2Nc3ccccc3C(=O)N2CCO)cc1COc1ccc(NC(C)=O)cc1 (stereo not drawn)
3. Cc1nnc(-c2ccccc2C(C)C)nc1NCc1ccc(-c2cccnc2)cc1

Reply |
["inactive", "3.18 µM (active)", "inactive"]

====

Experiment: BET inhibitor-based combinations targeting novel dependencies in MECOM-rearranged (r) AML: AML-194 cell line (AID 2202237; note: nearly all actives have a fitted effect of over 40% in size)
Settings: AML-194 (MECOM-r AML) viability, CellTiter-Glo, 48 h; series mostly up to 46 µM
Experimental: Ecotropic viral insertion site 1 (EVI1) is located on chromosome 3q26.2 as part of the MECOM (MDS and EVI1 complex) locus. […] A collection of 2480 mechanistically annotated dugs (MIPE v5.0) was used to screen four 3q26.2 rearranged AML cell lines and three non-3q26.2 rearranged AML cell lines. […] Cell viability was determined by luminescence based, Cell Titer Glo assay (Promega). […] Luminescence readings were taken using a Viewlux (PerkinElmer) with a 2 s exposure time per plate. […]
Inconclusive results are not listed. Activity calls are given as the source filed them. Calls come from the whole dose curve; as a rule, active = well fitted inhibition curve with a large enough effect; inconclusive = small, poorly fitted or top-dose-only effect; inactive = flat fitted curve, though single readings scatter.
// one of active, inactive, no free text

Check out these entries, answers already filled in.
{"compound": "C=C(C)[C@@H]1CC[C@]2(C(=O)O)CC[C@]3(C)[C@H](CC[C@@H]4[C@@]5(C)CC[C@H](O)C(C)(C)[C@@H]5CC[C@]43C)[C@@H]12", "label-class": "inactive"}
{"compound": "CC[C@H](NC(=O)[C@H](CS(=O)(=O)CC1CC1)N[C@@H](c1ccc(F)cc1)C(F)(F)F)C(=O)C(=O)NC1CC1", "label-class": "inactive"}
{"compound": "NC(=O)c1cccnc1", "label-class": "inactive"}
{"compound": "CCCCCN(CCC12CC3CC(CC(C3)C1)C2)C(=O)NCCCc1ccncc1", "label-class": "active"}
{"compound": "CN1C(C(=O)Nc2ccccn2)=C(O)c2sc(Cl)cc2S1(=O)=O", "label-class": "inactive"}
{"compound": "Cc1csc(NC(=O)c2sc3nc4c(c(C(F)(F)F)c3c2N)CCC4)n1", "label-class": "inactive"}
{"compound": "NS(=O)(=O)c1cc2c(cc1Cl)NC=NS2(=O)=O", "label-class": "inactive"}
{"compound": "CC1(C)NC(=O)N(c2ccc([N+](=O)[O-])c(C(F)(F)F)c2)C1=O", "label-class": "inactive"}
{"compound": "Cc1ccccc1C(C(=O)NC1CCCCC1)N(C(=O)Cn1ccnc1C)c1cccc(F)c1 (stereo not given)", "label-class": "inactive"}
{"compound": "COc1cccc2c1C(=O)c1c(O)c3c(c(O)c1C2=O)C[C@@](O)(C(=O)CO)C[C@@H]3O[C@H]1C[C@H](N)[C@@H](O)[C@H](C)O1", "label-class": "active"}

Now let's try a different one.
Ask | I'd appreciate the recorded outcome for `Cc1cccc(N(C)C(=S)Oc2ccc3ccccc3c2)c1` from this test.
Reply | inactive
